procedure_details: HLM stability
Format: in vitro ADME
parameter_measured: HLM stability value

Some entries whose results are on file:
CC(C)(C)OC(=O)N[C@H]1CCCCCC(F)(F)C[C@@H]2C[C@@]2(C(=O)NS(=O)(=O)C2CC2)NC(=O)[C@@H]2C[C@@H](Oc3nc4ccccc4c4ccccc34)CN2C1=O :: > 100 µL/min/mg
Cc1cc(C(=O)N[C@H]2CCCCCC(F)(F)C[C@@H]3C[C@@]3(C(=O)NS(=O)(=O)C3CC3)NC(=O)[C@@H]3C[C@@H](Oc4nc5ccccc5c5ccccc45)CN3C2=O)nn1C :: < 50 µL/min/mg
Cn1ccc(C(=O)N[C@H]2CCCCCC(F)(F)C[C@@H]3C[C@@]3(C(=O)NS(=O)(=O)C3CC3)NC(=O)[C@@H]3C[C@@H](Oc4nc5ccccc5nc4-c4cc5ccccc5o4)CN3C2=O)n1 :: < 50 µL/min/mg
Cc1cc(C(=O)N[C@H]2CCCCCC(F)(F)C[C@@H]3C[C@@]3(C(=O)NS(=O)(=O)C3CC3)NC(=O)[C@@H]3C[C@@H](Oc4nc5ccccc5nc4-c4ccccc4)CN3C2=O)no1 :: < 50 µL/min/mg
CCc1nc2ccccc2nc1O[C@@H]1C[C@H]2C(=O)N[C@]3(C(=O)NS(=O)(=O)C4CC4)C[C@H]3CC(F)(F)CCCCC[C@H](NC(=O)c3ccon3)C(=O)N2C1 :: < 50 µL/min/mg
CCc1nc2ccccc2nc1O[C@@H]1C[C@H]2C(=O)N[C@]3(C(=O)NS(=O)(=O)C4CC4)C[C@H]3CC(F)(F)CCCCC[C@H](NC(=O)C(C)(C)C)C(=O)N2C1 :: < 50 µL/min/mg
CCc1nc2ccccc2nc1O[C@@H]1C[C@H]2C(=O)N[C@]3(C(=O)NS(=O)(=O)C4CC4)C[C@H]3CC(F)(F)CCCCC[C@H](NC(=O)OC(C)(C)C)C(=O)N2C1 :: > 100 µL/min/mg
CCc1nc2ccccc2nc1O[C@@H]1C[C@H]2C(=O)N[C@]3(C(=O)NS(=O)(=O)C4(C)CC4)C[C@H]3CC(F)(F)CCCCC[C@H](NC(=O)OC(C)(C)C)C(=O)N2C1 :: > 100 µL/min/mg

-- ask Please give the documented HLM stability value of Cc1cc(C(=O)N[C@H]2CCCCCC(F)(F)C[C@@H]3C[C@@]3(C(=O)NS(=O)(=O)C3CC3)NC(=O)[C@@H]3C[C@@H](Oc4nc5ccccc5nc4-c4nc5ccccc5s4)CN3C2=O)no1
-- reply < 50 µL/min/mg

-- ask Please give the documented HLM stability value of Cc1cc(C(=O)N[C@H]2CCCCCC(F)(F)C[C@@H]3C[C@@]3(C(=O)NS(=O)(=O)C3CC3)NC(=O)[C@@H]3C[C@@H](Oc4nc5ccccc5nc4C)CN3C2=O)no1
-- reply < 50 µL/min/mg

-- ask Please give the documented HLM stability value of CC(C)(C)OC(=O)N[C@H]1CCCCCC(F)(F)C[C@@H]2C[C@@]2(C(=O)NS(=O)(=O)C2CC2)NC(=O)[C@@H]2C[C@@H](Oc3cnc4ccccc4n3)CN2C1=O
-- reply 50 to 100 µL/min/mg

-- ask Please give the documented HLM stability value of CCc1nc2ccccc2nc1O[C@@H]1C[C@H]2C(=O)N[C@]3(C(=O)NS(=O)(=O)C4CC4)C[C@H]3CC(F)(F)CCCCC[C@H](NC(=O)c3cc(C)on3)C(=O)N2C1
-- reply < 50 µL/min/mg

-- ask Please give the documented HLM stability value of CCc1nc2ccccc2nc1O[C@@H]1C[C@H]2C(=O)N[C@]3(C(=O)NS(=O)(=O)C4(C)CC4)C[C@H]3CC(F)(F)CCCCC[C@H](NC(=O)c3cc(C)on3)C(=O)N2C1
-- reply < 50 µL/min/mg

-- ask Please give the documented HLM stability value of Cc1cc(C(=O)N[C@H]2CCCCCC(F)(F)C[C@@H]3C[C@@]3(C(=O)NS(=O)(=O)C3CC3)NC(=O)[C@@H]3C[C@@H](Oc4cnc5ccccc5n4)CN3C2=O)no1
-- reply < 50 µL/min/mg

-- ask Please give the documented HLM stability value of Cc1cnc(C(=O)N[C@H]2CCCCCC(F)(F)C[C@@H]3C[C@@]3(C(=O)NS(=O)(=O)C3CC3)NC(=O)[C@@H]3C[C@@H](Oc4nc5ccccc5c5ccccc45)CN3C2=O)cn1
-- reply < 50 µL/min/mg

====

target_desc: recombinant HCV NS3 protease, genotype 1b (Hepatitis C virus genotype 1b, UniProt Q9WMX2)
Sequence (Q9WMX2 1027-1657, other chains not shown): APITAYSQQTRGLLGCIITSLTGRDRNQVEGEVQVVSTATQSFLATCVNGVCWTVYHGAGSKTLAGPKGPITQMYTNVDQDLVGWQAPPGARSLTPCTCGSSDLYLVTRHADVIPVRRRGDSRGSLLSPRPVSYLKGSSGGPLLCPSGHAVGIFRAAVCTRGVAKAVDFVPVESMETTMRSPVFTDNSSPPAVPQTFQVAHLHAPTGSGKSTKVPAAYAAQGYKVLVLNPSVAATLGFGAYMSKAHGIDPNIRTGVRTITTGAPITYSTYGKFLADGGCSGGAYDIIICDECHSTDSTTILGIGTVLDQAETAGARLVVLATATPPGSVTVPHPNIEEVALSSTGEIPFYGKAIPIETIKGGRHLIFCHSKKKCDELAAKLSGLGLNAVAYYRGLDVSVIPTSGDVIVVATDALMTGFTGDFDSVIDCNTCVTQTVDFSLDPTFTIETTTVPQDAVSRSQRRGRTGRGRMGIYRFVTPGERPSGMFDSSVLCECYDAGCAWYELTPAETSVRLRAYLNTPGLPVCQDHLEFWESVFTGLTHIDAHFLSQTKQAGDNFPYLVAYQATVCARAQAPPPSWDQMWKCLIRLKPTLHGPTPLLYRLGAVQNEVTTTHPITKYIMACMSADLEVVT
procedure_details: biochemical
test_parameters: genotype 1b NS3 protease; read-out: IC50 in a 1b enzyme assay
This listing pairs molecules with measured IC50.

CC(C)(C)OC(=O)N[C@H]1CCCCCC(F)(F)C[C@@H]2C[C@@]2(C(=O)NS(=O)(=O)C2CC2)NC(=O)[C@@H]2C[C@@H](Oc3nc4ccccc4nc3-c3ccccc3)CN2C1=O :: 0.5 to 1 nM
CCc1nc2ccccc2nc1O[C@@H]1C[C@H]2C(=O)N[C@]3(C(=O)NS(=O)(=O)C4(C)CC4)C[C@H]3CC(F)(F)CCCCC[C@H](NC(=O)OC(C)(C)C)C(=O)N2C1 :: 0.1 to 0.5 nM
CCc1nc2ccccc2nc1O[C@@H]1C[C@H]2C(=O)N[C@]3(C(=O)NS(=O)(=O)C4CC4)C[C@H]3CC(F)(F)CCCCC[C@H](NC(=O)c3cc(C)on3)C(=O)N2C1 :: 0.1 to 0.5 nM
CC(C)(C)OC(=O)N[C@H]1CCCCCC(F)(F)C[C@@H]2C[C@@]2(C(=O)NS(=O)(=O)C2CC2)NC(=O)[C@@H]2C[C@@H](Oc3cnc4ccccc4n3)CN2C1=O :: > 1 nM
CCc1nc2ccccc2nc1O[C@@H]1C[C@H]2C(=O)N[C@]3(C(=O)NS(=O)(=O)C4CC4)C[C@H]3CC(F)(F)CCCCC[C@H](NC(=O)C(C)(C)C)C(=O)N2C1 :: 0.5 to 1 nM
CCc1nc2ccccc2nc1O[C@@H]1C[C@H]2C(=O)N[C@]3(C(=O)NS(=O)(=O)C4CC4)C[C@H]3CC(F)(F)CCCCC[C@H](NC(=O)c3ccon3)C(=O)N2C1 :: 0.1 to 0.5 nM

-- ask Please give the documented IC50 of Cn1ccc(C(=O)N[C@H]2CCCCCC(F)(F)C[C@@H]3C[C@@]3(C(=O)NS(=O)(=O)C3CC3)NC(=O)[C@@H]3C[C@@H](Oc4nc5ccccc5nc4-c4cc5ccccc5o4)CN3C2=O)n1
-- reply < 0.1 nM

-- ask Please give the documented IC50 of Cc1cc(C(=O)N[C@H]2CCCCCC(F)(F)C[C@@H]3C[C@@]3(C(=O)NS(=O)(=O)C3CC3)NC(=O)[C@@H]3C[C@@H](Oc4nc5ccccc5nc4-c4nc5ccccc5s4)CN3C2=O)no1
-- reply 0.1 to 0.5 nM

-- ask Please give the documented IC50 of Cc1cc(C(=O)N[C@H]2CCCCCC(F)(F)C[C@@H]3C[C@@]3(C(=O)NS(=O)(=O)C3CC3)NC(=O)[C@@H]3C[C@@H](Oc4nc5ccccc5nc4-c4cc5ccccc5o4)CN3C2=O)no1
-- reply 0.1 to 0.5 nM

-- ask Please give the documented IC50 of CCc1nc2ccccc2nc1O[C@@H]1C[C@H]2C(=O)N[C@]3(C(=O)NS(=O)(=O)C4CC4)C[C@H]3CC(F)(F)CCCCC[C@H](NC(=O)OC(C)(C)C)C(=O)N2C1
-- reply 0.1 to 0.5 nM

-- ask Please give the documented IC50 of CC(C)(C)OC(=O)N[C@H]1CCCCCC(F)(F)C[C@@H]2C[C@@]2(C(=O)NS(=O)(=O)C2CC2)NC(=O)[C@@H]2C[C@@H](Oc3nc4ccccc4c4ccccc34)CN2C1=O
-- reply < 0.1 nM

-- ask Please give the documented IC50 of Cc1nc2ccccc2nc1O[C@@H]1C[C@H]2C(=O)N[C@]3(C(=O)NS(=O)(=O)C4CC4)C[C@H]3CC(F)(F)CCCCC[C@H](NC(=O)OC(C)(C)C)C(=O)N2C1
-- reply 0.1 to 0.5 nM

====

target_desc: recombinant HCV NS3 protease, genotype 1a (Hepatitis C virus genotype 1a, UniProt P27958)
Sequence (P27958 1027-1657, other chains not shown): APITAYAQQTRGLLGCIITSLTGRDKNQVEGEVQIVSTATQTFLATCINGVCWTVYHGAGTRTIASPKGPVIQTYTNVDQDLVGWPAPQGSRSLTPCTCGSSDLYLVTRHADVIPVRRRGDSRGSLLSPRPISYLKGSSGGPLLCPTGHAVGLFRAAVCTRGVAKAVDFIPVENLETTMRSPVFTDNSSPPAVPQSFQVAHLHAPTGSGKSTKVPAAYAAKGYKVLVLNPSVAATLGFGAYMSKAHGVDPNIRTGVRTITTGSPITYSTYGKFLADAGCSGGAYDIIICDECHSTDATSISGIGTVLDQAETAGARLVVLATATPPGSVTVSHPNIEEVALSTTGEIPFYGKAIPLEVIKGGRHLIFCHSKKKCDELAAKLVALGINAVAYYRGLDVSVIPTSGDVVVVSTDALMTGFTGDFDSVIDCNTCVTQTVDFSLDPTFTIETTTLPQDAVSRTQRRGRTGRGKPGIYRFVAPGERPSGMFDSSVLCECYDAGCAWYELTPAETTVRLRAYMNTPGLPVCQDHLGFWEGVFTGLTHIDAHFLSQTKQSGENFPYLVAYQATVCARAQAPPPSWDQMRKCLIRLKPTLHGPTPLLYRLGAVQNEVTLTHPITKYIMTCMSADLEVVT
procedure_details: biochemical
test_parameters: genotype 1a NS3 protease; read-out: IC50 in a 1a enzyme assay
pIC50: −log10 of the molar value.
parameter_measured: pIC50

Some entries whose results are on file:
Cc1cc(C(=O)N[C@H]2CCCCCC(F)(F)C[C@@H]3C[C@@]3(C(=O)NS(=O)(=O)C3CC3)NC(=O)[C@@H]3C[C@@H](Oc4nc5ccccc5nc4-c4nc5ccccc5s4)CN3C2=O)no1 :: 9.30 to 10.00
CCc1nc2ccccc2nc1O[C@@H]1C[C@H]2C(=O)N[C@]3(C(=O)NS(=O)(=O)C4CC4)C[C@H]3CC(F)(F)CCCCC[C@H](NC(=O)c3cc(C)on3)C(=O)N2C1 :: 9.00 to 9.30
CCc1nc2ccccc2nc1O[C@@H]1C[C@H]2C(=O)N[C@]3(C(=O)NS(=O)(=O)C4CC4)C[C@H]3CC(F)(F)CCCCC[C@H](NC(=O)C(C)(C)C)C(=O)N2C1 :: 9.00 to 9.30
Cc1nc2ccccc2nc1O[C@@H]1C[C@H]2C(=O)N[C@]3(C(=O)NS(=O)(=O)C4CC4)C[C@H]3CC(F)(F)CCCCC[C@H](NC(=O)OC(C)(C)C)C(=O)N2C1 :: 9.30 to 10.00
Cc1cc(C(=O)N[C@H]2CCCCCC(F)(F)C[C@@H]3C[C@@]3(C(=O)NS(=O)(=O)C3CC3)NC(=O)[C@@H]3C[C@@H](Oc4nc5ccccc5nc4-c4cc5ccccc5o4)CN3C2=O)no1 :: 9.30 to 10.00

-- ask Look up and report pIC50, with recombinant HCV NS3 protease, genotype 1a (Hepatitis C virus genotype 1a, UniProt P27958) as system, for CCc1nc2ccccc2nc1O[C@@H]1C[C@H]2C(=O)N[C@]3(C(=O)NS(=O)(=O)C4(C)CC4)C[C@H]3CC(F)(F)CCCCC[C@H](NC(=O)OC(C)(C)C)C(=O)N2C1
-- reply 9.30 to 10.00

-- ask Look up and report pIC50, with recombinant HCV NS3 protease, genotype 1a (Hepatitis C virus genotype 1a, UniProt P27958) as system, for Cn1ccc(C(=O)N[C@H]2CCCCCC(F)(F)C[C@@H]3C[C@@]3(C(=O)NS(=O)(=O)C3CC3)NC(=O)[C@@H]3C[C@@H](Oc4nc5ccccc5nc4-c4cc5ccccc5o4)CN3C2=O)n1
-- reply 9.30 to 10.00

-- ask Look up and report pIC50, with recombinant HCV NS3 protease, genotype 1a (Hepatitis C virus genotype 1a, UniProt P27958) as system, for CCc1nc2ccccc2nc1O[C@@H]1C[C@H]2C(=O)N[C@]3(C(=O)NS(=O)(=O)C4CC4)C[C@H]3CC(F)(F)CCCCC[C@H](NC(=O)OC(C)(C)C)C(=O)N2C1
-- reply 9.00 to 9.30

-- ask Look up and report pIC50, with recombinant HCV NS3 protease, genotype 1a (Hepatitis C virus genotype 1a, UniProt P27958) as system, for CCc1nc2ccccc2nc1O[C@@H]1C[C@H]2C(=O)N[C@]3(C(=O)NS(=O)(=O)C4CC4)C[C@H]3CC(F)(F)CCCCC[C@H](NC(=O)c3ccon3)C(=O)N2C1
-- reply 9.30 to 10.00

-- ask Look up and report pIC50, with recombinant HCV NS3 protease, genotype 1a (Hepatitis C virus genotype 1a, UniProt P27958) as system, for CC(C)(C)OC(=O)N[C@H]1CCCCCC(F)(F)C[C@@H]2C[C@@]2(C(=O)NS(=O)(=O)C2CC2)NC(=O)[C@@H]2C[C@@H](Oc3nc4ccccc4nc3-c3ccccc3)CN2C1=O
-- reply 9.00 to 9.30

-- ask Look up and report pIC50, with recombinant HCV NS3 protease, genotype 1a (Hepatitis C virus genotype 1a, UniProt P27958) as system, for CC(C)(C)OC(=O)N[C@H]1CCCCCC(F)(F)C[C@@H]2C[C@@]2(C(=O)NS(=O)(=O)C2CC2)NC(=O)[C@@H]2C[C@@H](Oc3cnc4ccccc4n3)CN2C1=O
-- reply < 9.00

-- ask Look up and report pIC50, with recombinant HCV NS3 protease, genotype 1a (Hepatitis C virus genotype 1a, UniProt P27958) as system, for CC(C)(C)OC(=O)N[C@H]1CCCCCC(F)(F)C[C@@H]2C[C@@]2(C(=O)NS(=O)(=O)C2CC2)NC(=O)[C@@H]2C[C@@H](Oc3nc4ccccc4c4ccccc34)CN2C1=O
-- reply > 10.00
